- EXPERIMENTAL_CONTEXT: in water, 308.15 K
MEASURED_METRIC: solubility (mole fraction)
The reply should be a number, written without any unit.

Nc1c(Cl)cc([N+](=O)[O-])cc1Cl has a reported solubility (mole fraction) of 1.06e-05

---

- EXPERIMENTAL_CONTEXT: in ethyl acetate, 288.15 K
MEASURED_METRIC: solubility (mole fraction)
The reply should be a number, written without any unit.

Nc1c(Cl)cc([N+](=O)[O-])cc1Cl has a reported solubility (mole fraction) of 0.0109

---

- EXPERIMENTAL_CONTEXT: in methanol, 293.15 K
MEASURED_METRIC: solubility (mole fraction)

Nc1c(Cl)cc([N+](=O)[O-])cc1Cl has a reported solubility (mole fraction) of 0.00121

---

- EXPERIMENTAL_CONTEXT: in methanol, 288.15 K
MEASURED_METRIC: solubility (mole fraction)
The reply should be a number, written without any unit.

Nc1c(Cl)cc([N+](=O)[O-])cc1Cl has a reported solubility (mole fraction) of 0.000987

---

- EXPERIMENTAL_CONTEXT: in n-propanol, 278.15 K
MEASURED_METRIC: solubility (mole fraction)
The reply should be a number, written without any unit.

Nc1c(Cl)cc([N+](=O)[O-])cc1Cl has a reported solubility (mole fraction) of 0.00102

---

- EXPERIMENTAL_CONTEXT: in acetonitrile, 283.15 K
MEASURED_METRIC: solubility (mole fraction)
The reply should be a number, written without any unit.

Nc1c(Cl)cc([N+](=O)[O-])cc1Cl has a reported solubility (mole fraction) of 0.00176

---

- EXPERIMENTAL_CONTEXT: in water, 318.15 K
MEASURED_METRIC: solubility (mole fraction)
The reply should be a number, written without any unit.

Nc1c(Cl)cc([N+](=O)[O-])cc1Cl has a reported solubility (mole fraction) of 1.72e-05

---

- EXPERIMENTAL_CONTEXT: in 1,4-dioxane, 323.15 K
MEASURED_METRIC: solubility (mole fraction)
The reply should be a number, written without any unit.

Nc1c(Cl)cc([N+](=O)[O-])cc1Cl has a reported solubility (mole fraction) of 0.0598

---

- EXPERIMENTAL_CONTEXT: in acetonitrile, 313.15 K
MEASURED_METRIC: solubility (mole fraction)
The reply should be a number, written without any unit.

Nc1c(Cl)cc([N+](=O)[O-])cc1Cl has a reported solubility (mole fraction) of 0.00487

---

- EXPERIMENTAL_CONTEXT: in methanol, 313.15 K
MEASURED_METRIC: solubility (mole fraction)
The reply should be a number, written without any unit.

Nc1c(Cl)cc([N+](=O)[O-])cc1Cl has a reported solubility (mole fraction) of 0.00267

---

- EXPERIMENTAL_CONTEXT: in ethylene glycol, 293.15 K
MEASURED_METRIC: solubility (mole fraction)

Nc1c(Cl)cc([N+](=O)[O-])cc1Cl has a reported solubility (mole fraction) of 0.00139

---

- EXPERIMENTAL_CONTEXT: in n-butanol, 293.15 K
MEASURED_METRIC: solubility (mole fraction)
The reply should be a number, written without any unit.

Nc1c(Cl)cc([N+](=O)[O-])cc1Cl has a reported solubility (mole fraction) of 0.00216
